test system: T47D; assay: NCI tumour cell line growth inhibition, 48 h
The source made the active and inactive calls. Cut-off read from the data, not from the text of the source: active = GI50 up to about 1.1 µM and inactive = higher.
One label from this list, please: t = active, f = inactive

Prompt: Please share the test call associated with `CCOC(=O)c1nc2cc(C(F)(F)F)ccc2nc1Oc1ccc(C(=O)OC)cc1` .
Response: f

Prompt: How about Nc1nc2cc(CNc3ccc(C(=O)NC(CCC(=O)O)C(=O)O)cc3)ccc2nc1-c1ccccc1 (centres undefined) ?
Response: f

Prompt: How about `CN(C1=NCCO1)c1cccc2c1CCCC2` ?
Response: f

Prompt: How about `COc1cc(O)c2c(=O)cc(C3(O)C=CC(=O)C=C3)oc2c1` ?
Response: t

Prompt: How about `COc1cc2c[n+](C)c3c4cc(OC)c(OCc5ccccc5)cc4c(OCc4ccccc4)cc3c2cc1OC` ?
Response: f

Prompt: How about CC(C(O)c1ccccc1)N(C)/N=N/c1nc2c([nH]1)c(=O)n(C)c(=O)n2C (centres undefined) ?
Response: f

Prompt: How about `O=C1C(Cl)=C(Sc2nnc3c4ccccc4c4ccccc4c3n2)C(=O)c2ccccc21` ?
Response: f

---

tested on: OVCAR-8; assay: NCI tumour cell line growth inhibition, 48 h
Activity calls are given as the source filed them. No stated cut-off is given here; in the data, active = GI50 up to about 1.1 µM and inactive = higher.
metric.name: GI50

As a guide, the following entries are already answered.
CCC(C)C(N)C(=O)NC(CC(N)=O)C(=O)NC(CC(C)C)C(=O)NC(CCCCN)C(=O)NC(C)C(=O)NC(CC(C)C)C(=O)NC(C)C(=O)NC(C)C(=O)NC(CC(C)C)C(=O)NC(C)C(=O)NC(CCCCN)C(=O)NC(CCCCN)C(=O)NC(C(=O)NC(CC(C)C)C(N)=O)C(C)CC (stereo not drawn); 17.5 µM (inactive)
NC(=S)N/N=C1\C(=O)C=C(Nc2ccc(Cl)cc2Cl)c2ccccc21; 21.9 µM (inactive)
CC1=C(C)C(=O)C2=C(OCCCO2)C1=O; 18.7 µM (inactive)
CC(=O)OC1CC2C(C)(C)C(=O)C=C[C@]2(C)C2CCC3(C)C(c4ccoc4)C(=O)[C@H]4O[C@]43[C@]12C (stereo partly drawn); 19.4 µM (inactive)
Cc1cc(O)c2c(c1)OC1(C)CCC3C(C)(C)CCCC34COC2C14 (stereo not drawn); 16.7 µM (inactive)
CCCCn1c2c(c3ccccc3c1=O)C(=O)c1ccccc1-2; > 100 µM (inactive)
CC1CC[C@@]2(OC1)O[C@H]1C[C@H]3[C@@H]4CC[C@H]5C[C@@H](OC6OC(CO)C(OC7OC(CO)C(OC8OC(CO)C(O)C(OC9OC(C)C(OC%10OC(C)C(O)C(O)C%10O)C(O)C9O)C8OC8OCC(O)C(O)C8O)C(O)C7O)C(O)C6O)CC[C@]5(C)[C@H]4CC(=O)[C@]3(C)[C@H]1[C@@H]2C (stereo partly drawn); 20.7 µM (inactive)
CC1=C(CO)C(=O)O[C@@H]([C@@H](CO)[C@H]2CCC3C4C[C@@H](O)[C@@]5(O)CC=CC(=O)[C@]5(C)C4CC[C@@]32C)C1 (stereo partly drawn); 73.1 µM (inactive)
CN(C)/C(N)=N\C#N; > 100 µM (inactive)
N#C/C(c1nc2ccccc2[nH]1)=c1\s/c(=C/c2ccccc2)c(=O)n1-c1ccccc1; > 100 µM (inactive)

Consider the additional molecule presented here.
Prompt: // GI50 lookup, key: `O=C(N/N=C/c1cccc(O)c1O)N/N=C/c1cccc(O)c1O`
Response: 16.6 µM (inactive)
